Quick list: GI50 per entry.
- System: TK-10 renal
- Test name: NCI tumour cell line growth inhibition, 48 h

INSERT INTO assay_data (structure_smiles, measured_on, result) VALUES
  ('CC1(C)N=C(N)N=C(N)N1c1ccc(F)c(C(F)(F)F)c1', 'TK-10 renal', '3.4 µM'),
  ('CC(=O)O[C@H]1CC[C@]2(C)[C@H]3CC[C@@H]4[C@H]5[C@H](C(C)C)CC[C@]5(C(=O)OCC(CO)(CO)N=C(N)N)CC[C@@]4(C)[C@]3(C)CC[C@H]2C1(C)C', 'TK-10 renal', '1.67 µM');

Please turn your attention to the following entry.
Item: Nc1cc(-c2ccccc2)ccc1O | GI50: > 100 µM

----------
Overview of recorded TGI for various molecules
- System: NCI-H460 lung
- Test name: NCI tumour cell line growth inhibition, 48 h

INSERT INTO measurements (molecule, result) VALUES
  ('CC(C)OP(=O)(CN(C)/C(F)=N\C(F)(F)F)OC(C)C', '> 100 µM');

Pending molecule:
Item: Cc1csc2nc(-c3ccc([N+](=O)[O-])cc3)c(/C=N/N=C(N)N)n12 | TGI: 3.43 µM

----------
Recorded TGI values for a group of molecules are listed next.
- Tested on: OVCAR-8 ovarian
- Test name: NCI tumour cell line growth inhibition, 48 h
Answer with a number only, understood to be in µM.

INSERT INTO assay_data (structure_smiles, numeric_result) VALUES
  ('COc1cnc2c(c1)C(=O)c1c-2n(CCCn2ccnc2)c(=O)c2cc(Cl)ccc12', 14.3);

Entry under test: CN1C(=O)CNC(=O)[C@H](NC(=O)c2nc3ccccc3cc2O)CSSC[C@H]1C(=O)NCCc1nc2ccccc2cc1O . Its TGI was 53.9

----------
- Tested on: UO-31 renal
- Test name: NCI tumour cell line growth inhibition, 48 h
Metric name: TGI

INSERT INTO results (compound, measured_on, result) VALUES
  ('CCCCCCCCCCCC(=O)OCC1OC(n2cc(F)c(=O)[nH]c2=O)C(N)C(OC(=O)CCCCCCCCCCC)C1O (stereo not given)', 'UO-31 renal', '> 100 µM');

So for O=C(O)C1C2CC3C(OC(=O)C31)C2Br (stereo not given) , the logged TGI turned out to be > 100 µM

# TGI of O=[N+]([O-])c1ccccc1N=Nc1c(O)[nH]c2ccccc12 = > 52.8 µM

// TGI value for CCc1n[nH]c(=O)n1N1C(=O)C2CC=CCC2C1=O (stereo not given) : > 100 µM

Value of measured TGI for the entry COCCOC(=O)C1=C(C)NC2=C(C(=O)CC(c3ccccc3OC)C2)C1c1cccc(O)c1 (stereo not given) : 45.8 µM

----------
This section presents molecules with their documented GI50 values.
- Test system: SNB-19 CNS
- Test name: NCI tumour cell line growth inhibition, 48 h

INSERT INTO assay_data (structure_smiles, result) VALUES
  ('CCCCC(=O)N/N=C/c1cc(I)cc(I)c1O', '3430 nM'),
  ('COc1ccc2[nH]cc(-c3nc(-c4cn(C)c5ccncc45)cs3)c2c1', '1790 nM'),
  ('CC(C)=CCc1c(O)cc(/C=C/c2cc(O)c3c(c2)C[C@@H]2C(C)(C)[C@H](O)[C@H](O)C[C@@]2(C)O3)cc1O', '1460 nM');

Record Brc1ccc([I+]c2ccc(Br)cc2)cc1 . Reported GI50: 1380 nM

The molecule identified as CC(C)(C)c1ccc([I+]c2ccc(C(C)(C)C)cc2)cc1 registered its GI50 at 1110 nM

Recorded GI50 (molecule CCC[C@H](N[C@@H]1CCc2cc(F)cc(F)c2C1)C(=O)Nc1cn(C(C)(C)CNCC(C)(C)C)cn1 ): 26600 nM

----------
- Tested on: IGROV1 ovarian
- Test name: NCI tumour cell line growth inhibition, 48 h
Assign class by TGI: not lower than 30 µM means satisfied; lower than 30 µM means not satisfied.

Solved cases (8 shown):
INSERT INTO measurements (molecule, group) VALUES
  ('Cc1csc2nc(-c3ccc([N+](=O)[O-])cc3)c(/C=N/N=C(N)N)n12', 'not satisfied'),
  ('O=S1(=O)CCN(Cc2ccccn2)CC1', 'satisfied'),
  ('NC1CC(=O)c2csc(Br)c21 (stereo unspecified)', 'not satisfied'),
  ('COc1ccc2c3c1OC1C(=O)C=CC4(O)C(C2)NCC[C@@]314 (stereo partly specified)', 'not satisfied'),
  ('O=P(O)(O)C(O)/C=C/c1ccccc1 (stereo unspecified)', 'satisfied'),
  ('NNC(=O)c1c(Cl)c(Cl)c(Cl)c(Cl)c1-c1nc2ccccc2[nH]1', 'not satisfied'),
  ('CC(C)(C)[Si](C)(C)OCCCC#CCO', 'satisfied'),
  ('O=C(NO)c1coc2ccccc2c1=O', 'satisfied');

Is the recorded value of TGI equal to or greater than 30 µM for this molecule? COc1ccc2c(c1)CC[C@@H]1[C@@H]2CC[C@@]2(C)[C@H]1CC1(CCCCC1)[C@@H]2O satisfied

Has NC(=O)CCC(NCc1c2ccccc2[n+]([O-])c2ccccc12)C(=O)O (stereo unspecified) a recorded TGI greater than or equal to 30 µM? satisfied

----------
- Tested on: UO-31 renal
- Test name: NCI tumour cell line growth inhibition, 48 h
Parameter: TGI. Scope: all listed entries.

# example entries with known answers
INSERT INTO assay_data (molecule, result) VALUES
  ('CC1=CC(C)(C)N=C2SC(c3ccc(Cl)cc3)=NN12', '50.4 µM'),
  ('CCCCCCCCCCCCCCCC(=O)OCC(O)C1OC(=O)C(O)=C1O (stereo unspecified)', '59.9 µM');

Measured TGI, O=C1CCCc2c1c1c(n2Cc2ccccc2)-c2ccccc2C1=O : > 100 µM

Lab book: TGI of COc1ccc2c(c1)c(C1(c3cn(C)c4ccc(OC)cc34)C(=O)Nc3ccc(F)cc31)cn2C noted as > 100 µM

# TGI (molecule: CCCCC(=O)N/N=C/c1cc(I)cc(I)c1O ) is 11.1 µM

TGI in this record for Nc1ccc2c(c1)C(=O)c1c(F)cccc1-2 : > 100 µM

Reported TGI for CC(=O)Oc1ccc2c(c1)c1c(=O)oc(N(C)C)nc1n2Cc1ccccc1 was > 81.8 µM

The value of TGI measured for the molecule O=C1OC(c2ccc(O)c(-c3ccccc3)c2)(c2ccc(O)c(-c3ccccc3)c2)c2c(Cl)c(Cl)c(Cl)c(Cl)c21 turned out to be > 100 µM

----------
- System: SK-OV-3 ovarian
- Test name: NCI tumour cell line growth inhibition, 48 h
Quick reference: TGI of the listed items.

Examples with their reported TGI follow.
INSERT INTO measurements (compound, result) VALUES
  ('CC(=O)Oc1ccc2c(c1)c1c(=O)oc(N(C)C)nc1n2Cc1ccccc1', '> 100 µM'),
  ('CN(C)CCn1c2ccccc2c2nc3cc4ccccc4cc3nc21', '23.4 µM'),
  ('O=P(O)(O)C(O)/C=C/c1ccccc1 (stereo not drawn)', '> 100 µM'),
  ('COc1cc2c(c(OC)c1OC)-c1[nH]ncc1CC2', '> 100 µM'),
  ('COc1cc(OC)c2c(=O)c(O)c(-c3ccc(OC)c(OC)c3)oc2c1', '> 100 µM');

Lab note: CC(C)(C)c1ccc(CN2CCN(C(c3ccccc3)c3ccc(Cl)cc3)CC2)cc1 (stereo not drawn) gave TGI of > 100 µM

----------
The following compounds are shown together with reported GI50 values.
- System: SK-MEL-28 melanoma
- Test name: NCI tumour cell line growth inhibition, 48 h

Take a look at these entries with their results.
INSERT INTO results (compound, metric_name, result) VALUES
  ('COc1ccc2[nH]cc(-c3nc(-c4cn(C)c5ccncc45)cs3)c2c1', 'GI50', '1.79 µM'),
  ('O=C(Nc1ccc(Br)cc1)Nc1n[nH]c2ccccc12', 'GI50', '> 100 µM'),
  ('CC(C)=CCc1c(O)cc(/C=C/c2cc(O)c3c(c2)C[C@@H]2C(C)(C)[C@H](O)[C@H](O)C[C@@]2(C)O3)cc1O', 'GI50', '1.58 µM'),
  ('Brc1ccc([I+]c2ccc(Br)cc2)cc1', 'GI50', '1.43 µM');

The value of GI50 measured for the compound CCc1c2c(nc3cc4c(cc13)OCO4)-c1cc3c(c(=O)n1C2)COC(=O)[C@@]3(CC)OC(=O)CN turned out to be 0.101 µM

So for CCC[C@H](N[C@@H]1CCc2cc(F)cc(F)c2C1)C(=O)Nc1cn(C(C)(C)CNCC(C)(C)C)cn1 , the logged GI50 turned out to be 15.1 µM

Sure, the documented GI50 for O=C(Nc1cc(C(F)(F)F)ccc1F)Nc1n[nH]c2ccccc12 is > 100 µM

# GI50 (compound: CC(ONC(=O)c1cc(C(F)(F)F)cc(C(F)(F)F)c1)C(=O)Nc1ccc(Cl)cc1 (centres undefined) ) is 5.4 µM

Given item CC(=O)OC1COC(S[As](C)C)C(OC(C)=O)C1OC(C)=O (centres undefined) , the value recorded as its GI50 is 0.666 µM

All values here come from PubChem BioAssay (NCI).
